molecular target: Disintegrin and metalloproteinase domain-containing protein 10 (Homo sapiens) (UniProt O14672); experiment: blockers of ADAM10 peptide cleavage – biochemical, QFRET, HTS, primary screen (AID 720582); conditions: recombinant ADAM10, EDANS/DABCYL FRET peptide cleavage, 3 h; at 7 µM; hits give high values;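 also: 0% = DMSO wells while the 100% control is not disclosed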
Sequence (O14672 214-748 limits assumed): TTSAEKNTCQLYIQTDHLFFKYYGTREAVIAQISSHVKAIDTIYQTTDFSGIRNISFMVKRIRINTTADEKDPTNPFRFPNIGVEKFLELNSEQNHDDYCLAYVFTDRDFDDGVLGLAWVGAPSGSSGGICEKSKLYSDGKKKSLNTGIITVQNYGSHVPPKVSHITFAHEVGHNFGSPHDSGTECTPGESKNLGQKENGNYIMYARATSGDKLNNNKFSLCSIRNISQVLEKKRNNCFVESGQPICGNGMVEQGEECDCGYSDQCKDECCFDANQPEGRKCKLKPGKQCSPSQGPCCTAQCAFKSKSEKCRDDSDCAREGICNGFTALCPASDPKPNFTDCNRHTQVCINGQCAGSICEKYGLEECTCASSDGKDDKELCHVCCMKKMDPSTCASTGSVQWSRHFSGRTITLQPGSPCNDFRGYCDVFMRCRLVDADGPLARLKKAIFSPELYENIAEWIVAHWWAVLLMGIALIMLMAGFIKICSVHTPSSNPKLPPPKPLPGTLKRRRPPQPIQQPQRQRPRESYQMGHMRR
Among all 370,000 compounds or so, about 2,300 (0.62%) were called active. The sample as a whole holds a higher share of actives than the screen did.
attribute.measured: inhibition (%)
Express the result in % but write the number alone.

1. Cc1ccc(OCc2nnc(SC/C=C/c3ccccc3)n2Cc2ccco2)cc1: 21.3
2. COc1cccc(CC2(CO)CCCN(Cc3nc(-c4cccs4)oc3C)C2)c1 (stereo not given): 0.04
3. CC(C)Oc1ccc(CC(=O)NNC(=S)Nc2ccc(Br)cc2)cc1: 23.5
4. Cc1ccc(-c2nnc(SCC(=O)Nc3ccc(Oc4ccccc4)cc3)n2Cc2ccco2)cc1: 17.8
5. COC(=O)c1cccc(Cn2ccc3ccc(-c4ccc5ccn(C(=O)c6ccccc6C)c5c4)cc32)c1: -41.7

Which inhibition is reported for this molecule? COc1cccc(C2CC(c3cccs3)=NN2C(=O)CSC2=NCCS2)c1OC (stereo not given)
-3.83

Which inhibition is reported for this molecule? `O=C(CSc1nnc(COc2ccccc2)n1Cc1ccco1)c1ccc2ccccc2c1`
9.91

Which inhibition is reported for this molecule? COc1cccc(CNC(=O)CCC2CCCN(Cc3ccc(OC(F)F)cc3)C2)c1 (stereo not given)
-2.49

Which inhibition is reported for this molecule? `O=S1(=O)c2c(cccc2N2CCSCC2)Oc2ccccc2CN1Cc1cn(Cc2ccc(F)cc2)nn1`
-1.57

Which inhibition is reported for this molecule? O=C(NN1C(=O)C2C3C=CC(O3)C2C1=O)c1ccccc1 (stereo not given)
1.76

* * *

biological target: Disintegrin and metalloproteinase domain-containing protein 10 (Homo sapiens); assay: blockers of ADAM10 peptide cleavage – biochemical, QFRET, HTS, primary screen (AID 720582); conditions: recombinant ADAM10, EDANS/DABCYL FRET peptide cleavage, 3 h; at 7 µM; hits give high values;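 also: 0% = DMSO wells while the 100% control is not disclosed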
The whole screen tested about 370,000 compounds, of which about 2,300 (0.62%) were called active. The entries come from a sample that favours actives as a whole.
Recorded inhibition by entry
Express the result in % but write the number alone.

Which inhibition is reported for this compound? `CCCCCc1c(-c2cccc(Br)c2)ncn1CCc1ccccc1OC`
-0.06

Which inhibition is reported for this compound? CCCC1CCC2(CCCN2CCOC(=O)NCc2ccccc2)CC1 (stereo unspecified)
-8.67

Which inhibition is reported for this compound? O=C1NC(Nc2nc3ccccc3s2)(C(F)(F)F)C(=O)N1C1CCCCC1 (stereo unspecified)
21

Which inhibition is reported for this compound? O=C(CCCCCN1C(=O)C2C3C=CC(C3)C2C1=O)Nc1ccccc1 (stereo unspecified)
1.21

* * *

biological target: Disintegrin and metalloproteinase domain-containing protein 10 (Homo sapiens); test: blockers of ADAM10 peptide cleavage – biochemical, QFRET, HTS, primary screen (AID 720582); conditions: recombinant ADAM10, EDANS/DABCYL FRET peptide cleavage, 3 h; at 7 µM; hits give high values;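 also: 0% = DMSO wells while the 100% control is not disclosed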
The whole screen tested about 370,000 compounds, of which about 2,300 (0.62%) were called active. The list comes from a sample in which actives are over-represented; it also holds close analogues and randomly drawn compounds.
Recorded inhibition by entry
Express the result in % but write the number alone.

1. O=C(CC1SC(=Nc2ccccc2)N(Cc2ccccn2)C1=O)Nc1cccc(Cl)c1 (stereo unspecified): 21.2
2. O=S(=O)(Nc1ccc(Oc2ncccn2)c(Cl)c1)c1ccc(F)cc1: 7.14
3. Cc1cnc(C(=O)OCC(=O)NCCCc2ccccc2)cn1: -1.14
4. NS(=O)(=O)c1ccc(CCNC(=O)c2ccc(Cl)cc2[N+](=O)[O-])cc1: -0.8
5. CCN1C(=O)C(CC(=O)Nc2cc(C)ccc2C)SC1=Nc1ccc(S(N)(=O)=O)cc1 (stereo unspecified): 3.57

Would you kindly look at the next entry?
Which inhibition is reported for this compound? `CCOc1ccc(Oc2c(Cl)cnn(-c3ccc(C)cc3)c2=O)cc1`
0.21

* * *

biological target: Disintegrin and metalloproteinase domain-containing protein 10 (Homo sapiens); assay: blockers of ADAM10 peptide cleavage – biochemical, QFRET, HTS, primary screen (AID 720582); conditions: recombinant ADAM10, EDANS/DABCYL FRET peptide cleavage, 3 h; at 7 µM;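 also: 0% = DMSO wells while the 100% control is not disclosed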
Screen size: about 370,000 compounds; about 2,300 (0.62%) were called active.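 How the source made its calls: active means inhibition above a per-campaign cutoff equal to the mean of compounds falling between control-based bounds plus 3 SD (cut at about 20% in these data); inactive means the rest.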 The full list was thinned out, with actives kept by preference.
Hi! Could you answer with just one of these? active, inactive

1. COc1ccnc(NC(=S)N2CCN(c3ncc(C(F)(F)F)cc3Cl)CC2)c1: inactive
2. Cc1ccc(NC(=O)Nc2cc(C)nn2-c2ccccc2)cc1: inactive

Test call for this compound, please: `CCOC(=O)[C@]12CCCCC/C=C\1N(Cc1ccc(OC)cc1)C(=O)[C@H]2CC(=O)N1CCOCC1`
inactive

Test call for this compound, please: `Cn1c(Nc2ccccc2)cc(=O)n(C)c1=O`
inactive

Test call for this compound, please: `Cc1cc(Nc2ccccc2)n(C(=O)c2ccc(N)cc2)n1`
active

* * *

Recorded inhibition by entry
target: Disintegrin and metalloproteinase domain-containing protein 10 (Homo sapiens) (UniProt O14672); experiment: blockers of ADAM10 peptide cleavage – biochemical, QFRET, HTS, primary screen (AID 720582); details: recombinant ADAM10, EDANS/DABCYL FRET peptide cleavage, 3 h; at 7 µM; hits give high values;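 also: 0% = DMSO wells while the 100% control is not disclosed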
In all, about 370,000 compounds went through this assay and about 2,300 (0.62%) were called active. The sample as a whole holds a higher share of actives than the screen did.
Express the result in % but write the number alone.

1. Cc1cccc(N2C(=O)N3[C@H](c4ccc(F)cc4)[C@@H]4C(=O)N(C5CCCCC5)C(=O)[C@@H]4[C@]3(Cc3ccccc3)C2=O)c1: 5.39
2. CCOc1ccc(Br)cc1S(=O)(=O)Nc1cccc(S(=O)(=O)N(CC)CC)c1: 0.81
3. CCOC(=O)C1CCN(C(=O)C(C)(C)NC(=O)Nc2ccc(F)c(F)c2)CC1: 6.44
4. COc1ccc(NS(=O)(=O)c2ccc(N3CCOCC3)c(NC(=O)c3ccccc3Br)c2)cc1: 6.43

Would you kindly look at the next entry?
Which inhibition is reported for this compound? `Cc1cccc([C@@H]2[C@@H]3C(=O)N(Cc4ccccc4)C(=O)[C@@H]3[C@]3(Cc4ccc(Cl)cc4)C(=O)N(c4cccc(Cl)c4)C(=O)N23)c1`
-4.37

* * *

biological target: Disintegrin and metalloproteinase domain-containing protein 10 (Homo sapiens); experiment: blockers of ADAM10 peptide cleavage – biochemical, QFRET, HTS, primary screen (AID 720582); details: recombinant ADAM10, EDANS/DABCYL FRET peptide cleavage, 3 h; at 7 µM;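 also: 0% = DMSO wells while the 100% control is not disclosed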
In all, about 370,000 compounds went through this assay and about 2,300 (0.62%) were called active.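 The calls were made as follows: active = inhibition above a per-campaign cutoff equal to the mean of compounds falling between control-based bounds plus 3 SD (cut at about 20% in these data); inactive = the rest.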 The sample holds actives, similar compounds and a random draw of the others, so the mix is not that of the screen.
Hi! Could you answer with just one of these? active, inactive

// known answers, use as guide
1. COCCCNC(=S)N1CCN(c2nc(-c3cccc(OC)c3)cs2)CC1: inactive
2. CC[C@@H](CCC(=O)N(c1ccccc1)c1ccccc1)C1CC1: inactive
3. CCCC(=O)Nc1ccc(C(=O)NCCCn2ccnc2)cc1: inactive
4. CCOC(=O)N1CCN(C(=O)C[C@@H]2C(=O)N(CCc3ccc(Cl)cc3)C3=CCCC[C@]32C(=O)OCC)CC1: inactive
5. CCOC(=O)[C@@H]1[C@H]2COc3ccc(Br)cc3[C@H]2N2C(=O)N(c3ccc(C)cc3)C(=O)[C@@]12C: inactive
6. COC(=O)[C@]12C[C@H](CC(=O)NCc3ccccc3)C(=O)N(CCC3=CCCCC3)C1=C[C@H](C(C)C)O[C@@H]2C1CC1: inactive

Test call for this compound, please: CC1CCCC(C)N1C(=O)CN1CCN(c2nc(-c3ccc(F)cc3)cs2)CC1 (configuration not stated)
inactive

Test call for this compound, please: `O=C1C(=O)N(Cc2ccc(-c3ccsc3)cc2)c2ccc(OC(F)(F)F)cc21`
inactive

Test call for this compound, please: `COc1ccc(C(=O)NNC(=S)NC(=O)c2ccccc2)cc1`
active

Test call for this compound, please: `Cc1ccc(N(NC(=O)C(C)(C)O)C(=O)c2ccccc2)cc1C`
active

Test call for this compound, please: `Nn1c(SCC(=O)N2c3ccccc3Sc3ccccc32)nnc1-c1n[nH]c2c1CCC2`
inactive

Test call for this compound, please: `Cc1ccc(N2C(=O)N3[C@@H]4c5ccccc5OC[C@@H]4[C@@H](c4ccccc4)[C@@]3(C)C2=O)cc1`
active

Test call for this compound, please: `COC(=O)[C@]12C[C@H](CC(=O)NCCc3ccccc3OC)C(=O)N(Cc3ccco3)C1=C[C@H](C(C)C)O[C@@H]2C1CC1`
inactive

Test call for this compound, please: `Cc1cc(C)cc(OCC(=O)O/N=C(\N)Cc2ccc([N+](=O)[O-])cc2)c1`
inactive

Test call for this compound, please: `C[C@@H]1NC(=O)[C@@]2(C)[C@@H](c3ccccc3)[C@H]3COc4ccccc4[C@@H]3N2C1=O`
inactive

Test call for this compound, please: `CCCC(O)(CCC)C(=O)NN(C(=O)CCl)c1cccc(C)c1`
inactive

Test call for this compound, please: `N/C(Cc1ccc([N+](=O)[O-])cc1)=N\OC(=O)COc1ccc2ccccc2c1`
active
